- study_target: 5-hydroxytryptamine receptor 2C (Homo sapiens)
- Sequence (P28335 whole entry): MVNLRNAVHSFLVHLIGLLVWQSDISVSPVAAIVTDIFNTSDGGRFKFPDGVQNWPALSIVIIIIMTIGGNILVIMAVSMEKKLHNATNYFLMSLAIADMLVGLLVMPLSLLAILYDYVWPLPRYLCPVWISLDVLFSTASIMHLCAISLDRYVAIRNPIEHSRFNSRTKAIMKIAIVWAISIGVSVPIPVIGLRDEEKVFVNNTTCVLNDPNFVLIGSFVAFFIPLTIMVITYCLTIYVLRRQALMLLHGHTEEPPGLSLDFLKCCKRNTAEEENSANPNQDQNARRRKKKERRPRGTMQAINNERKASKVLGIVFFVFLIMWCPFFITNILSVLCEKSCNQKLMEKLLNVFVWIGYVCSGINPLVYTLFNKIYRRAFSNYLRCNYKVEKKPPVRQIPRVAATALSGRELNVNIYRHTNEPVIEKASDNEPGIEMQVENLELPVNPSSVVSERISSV
- measurement_description: Binding affinity towards human cloned 5-hydroxytryptamine receptor 2C in HEK293 cells, using [3H]mesulergine as radioligand.
attribute_measured: pKi
Just so you know, pKi here is -log10 of the concentration in molar units; reply with that number alone.

Entry COc1cc2c(cc1C(F)(F)F)N(C(=O)Nc1ccc(C)c(-c3cnccc3C)c1)CC2 : reported pKi = ? 9.50

Then what about the compound COc1cc2c(cc1C(F)(F)F)N(C(=O)Nc1ccc(Oc3cccnc3C)nc1)CC2 ? 9.20

Same read-out for COc1cc2c(cc1C(F)(F)F)N(C(=O)Nc1ccc(Cl)c(-c3cnccc3C)c1)CC2 ? 9.20

New cases:
Reported pKi, compound COc1cc2c(cc1C(F)(F)F)N(C(=O)Nc1cncc(-c3cc(F)cc(F)c3)c1)CC2 : ____ 7.10
